# System: UACC-62 melanoma
# ASSAY_NAME: NCI tumour cell line growth inhibition, 48 h
Each entry below carries its recorded TGI.

>  <COMPOUND>
CSCC[C@H](NC(=O)[C@H](CC(C)C)NC(=O)[C@@H](Cc1ccccc1)NC(=O)CNC(=O)[C@@H](NC(=O)[C@H](C)NC(=O)[C@H](Cc1c[nH]c2ccccc12)NC(=O)[C@H](CCC(N)=O)NC(=O)[C@H](N)CC(N)=O)C(C)C)C(N)=O

>  <RELATION_OPERATOR>
>

>  <TGI (µM)>
12.5

$$$$
>  <COMPOUND>
COc1cccc(C2ON=C(c3ccccc3)N2C23CC4CC(CC(C4)C2)C3)c1 (stereo not drawn)

>  <RELATION_OPERATOR>
>

>  <TGI (µM)>
10

$$$$
>  <COMPOUND>
COc1cc2oc(-c3ccc(O)cc3O)c(CC=C(C)C)c(=O)c2c(O)c1/C=C/C(C)C

>  <RELATION_OPERATOR>
=

>  <TGI (µM)>
10.4

$$$$
>  <COMPOUND>
O=C(NNCC(F)(F)F)c1ccncc1

>  <RELATION_OPERATOR>
>

>  <TGI (µM)>
100

$$$$
>  <COMPOUND>
COC(=O)C[CH2][Ge]([CH3])([CH3])[S]c1ccccc1

>  <RELATION_OPERATOR>
=

>  <TGI (µM)>
60.9

$$$$
>  <COMPOUND>
CCN1C(=O)/C(=C2\SC(c3ccccc3)(c3ccccc3)c3ccccc32)SC1=S

>  <RELATION_OPERATOR>
>

>  <TGI (µM)>
100

$$$$
>  <COMPOUND>
C/C(=N\NC(=S)N1CCN(C2CCCCCC2)CC1)c1ccccn1

>  <RELATION_OPERATOR>
=

>  <TGI (µM)>
1.95

$$$$
>  <COMPOUND>
CC1SC2(CCC(c3ccccc3)CC2)N(NC(=O)c2[nH]c3ccc(F)cc3c2-c2ccccc2)C1=O (stereo not drawn)

>  <RELATION_OPERATOR>
=

>  <TGI (µM)>
27.4

$$$$
